Assay: A CellTox Green Cytotoxicity Assay to monitor cytotoxicity in HepG2 cells - 32 hour (AID 1224883); also: % is scaled to controls: 0 for no effect and ±100 for the full control effect; nearly all actives have a fitted effect of over 50% in size
Conditions: CellTox Green fluorescence; series mostly up to 76.8 µM
Results filed as inconclusive are left out. Calls of active or inactive are those of the source. Calls follow the shape of the dose curve; as a rule, active = well fitted activation curve with a large enough effect in the repeat runs; inconclusive = weak or mixed curves; inactive = flat fitted curve, though single readings scatter.
Observed property: cytotoxicity increase

Example molecules with recorded cytotoxicity increase:
molecule=C=C(C)[C@H]1CN[C@H](C(=O)O)[C@H]1CC(=O)O recorded_value=inactive
molecule=Cn1c(CCCC(=O)O)nc2cc(N(CCCl)CCCl)ccc21 recorded_value=inactive
molecule="OCC(Cl)CCl (configuration not stated)" recorded_value=inactive
molecule=O=C(NC(=O)c1c(F)cccc1F)Nc1cc(Cl)c(F)c(Cl)c1F recorded_value=inactive
molecule=CCN(CCO)CCO recorded_value=inactive
molecule=Clc1cc2c(cc1Cl)Oc1cc(Cl)c(Cl)cc1O2 recorded_value="4.82% [at 0.29 µM] (inactive)"

Let us move to another entry and its cytotoxicity increase.
Answer with the recorded cytotoxicity increase for the molecule listed here: COP(=O)(OC)O/C(C)=C/C(=O)N(C)C
inactive
